- target-of-assay: serotonin uptake sites (rat brain membranes) (Rattus norvegicus, UniProt P31652)
- Construct: washed membrane homogenate
- assay-summary: [^3 H]6-Nitroquipazine saturation binding to rat brain membranes (Scatchard analysis)
- condition-info: rat brain membranes, 22° C., 2 hours, 30-1,200 pM radioligand, Scatchard analysis; read-out: apparent equilibrium dissociation constant (Kd)
observable: pKd
// pKd: -log10(molar conc.)

Reported pKd, compound O=[N+]([O-])c1ccc2nc(N3CCNCC3)ccc2c1 [[^3 H]6-nitroquipazine] : ____
10.03

* * *

- target-of-assay: serotonin uptake sites (rat cerebral cortical membranes) (Rattus norvegicus)
- Construct: The cerebral cortex of rat brain was rapidly dissected; from tissue; host or cells: rat cerebral cortex membranes (p-chloroamphetamine-treated rats)
- assay-summary: [^3 H]6-nitroquipazine binding to cerebral cortical membranes after serotonin neuronal lesions with p-chloroamphetamine
- condition-info: rats treated with p-chloroamphetamine (2.5 mg/kg i.p. x3), cerebral cortex, mean ± S.E.M., *P < 0.01 vs control
observable: pKd
// pKd: -log10(molar conc.)

Reported pKd, compound O=[N+]([O-])c1ccc2nc(N3CCNCC3)ccc2c1 [[^3 H]6-nitroquipazine] : ____
9.97

* * *

- target-of-assay: serotonin uptake sites (rat cerebral cortical membranes) (Rattus norvegicus)
- Construct: The cerebral cortex of rat brain was rapidly dissected; from tissue; host or cells: rat cerebral cortex membranes (p-chloroamphetamine-treated rats)
- assay-summary: [^3 H]6-nitroquipazine binding to cerebral cortical membranes after serotonin neuronal lesions with p-chloroamphetamine
- condition-info: control rats, cerebral cortex, mean ± S.E.M.
observable: Kd (pM)
Provide only the numeric value, understood in pM.

Kindly state the measured Kd obtained for O=[N+]([O-])c1ccc2nc(N3CCNCC3)ccc2c1 [[^3 H]6-nitroquipazine] with serotonin uptake sites (rat cerebral cortical membranes) (Rattus norvegicus).
141

* * *

Please go through the items and note down their pKi.
- target-of-assay: serotonin uptake sites ([^3 H]6-nitroquipazine binding, rat brain membranes) (Rattus norvegicus, UniProt P31652)
- Construct: from tissue; host or cells: rat brain minus cerebellum, pons and medulla oblongata; washed membrane homogenate
- Sequence (P31652 whole entry): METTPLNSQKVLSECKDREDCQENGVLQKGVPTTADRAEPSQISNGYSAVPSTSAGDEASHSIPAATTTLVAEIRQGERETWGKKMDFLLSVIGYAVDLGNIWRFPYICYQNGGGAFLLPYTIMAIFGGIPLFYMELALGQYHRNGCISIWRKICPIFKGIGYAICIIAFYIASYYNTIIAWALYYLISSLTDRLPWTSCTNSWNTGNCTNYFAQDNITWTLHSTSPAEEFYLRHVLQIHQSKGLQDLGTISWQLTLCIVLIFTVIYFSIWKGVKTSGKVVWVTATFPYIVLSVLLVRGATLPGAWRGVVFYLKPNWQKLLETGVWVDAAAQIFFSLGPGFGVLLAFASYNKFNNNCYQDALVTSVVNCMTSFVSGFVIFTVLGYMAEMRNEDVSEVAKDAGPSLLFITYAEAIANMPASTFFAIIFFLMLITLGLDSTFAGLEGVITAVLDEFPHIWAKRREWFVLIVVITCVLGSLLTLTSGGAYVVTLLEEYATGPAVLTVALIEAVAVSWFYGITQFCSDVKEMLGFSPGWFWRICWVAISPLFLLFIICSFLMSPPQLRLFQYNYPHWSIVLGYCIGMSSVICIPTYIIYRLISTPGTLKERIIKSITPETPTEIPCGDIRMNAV
- assay-summary: Inhibition of [^3 H]6-nitroquipazine binding by several drugs
- condition-info: read-out: Ki
// pKi: -log10(molar conc.)

Reported pKi, molecule `O=[N+]([O-])c1ccc2nc(N3CCNCC3)ccc2c1` : ____
9.89

Same question for `c1ccc2c(CCC3CCNCC3)c[nH]c2c1` please.
8.71
